Cited source for all entries: patent US20160199438A1

The entries below come with measured Molar ratio of hGLP-1R/hGIP-R values attached.
# system_under_test: T1, human glucagon-like peptide 1 receptor (human, UniProt P43220 24-463)
# T1 construct: whole, on cells; also called hGLP-1R; Human GLP-1R
# protocol_notes: Ki ratio hGLP-1R/hGIP-R normalized by 4.53 (native GLP-1/GIP), radioligand competition
Give the value as a plain number.

The examples below pair each entry with its known result.
YXEGTFTSDYSIXLDKIAQKAXVQWLIAGGPSSGAPPPS (Aib at positions 2 and 13; K at position 20 conjugated at the epsilon-amino group with ([2-(2-Amino-ethoxy)-ethoxy]-acetyl)2-(γGlu)2-CO-(CH2)16-CO2H; 1-Nal at position 22; C-terminal primary amide, Synthetic acylated peptide, trifluoroacetate salt) [Example 7]	1.68
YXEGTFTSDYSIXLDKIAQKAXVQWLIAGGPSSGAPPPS (Aib at positions 2 and 13; K at position 20 conjugated at the epsilon-amino group with ([2-(2-Amino-ethoxy)-ethoxy]-acetyl)2-(γGlu)1-CO-(CH2)18-CO2H; 1-Nal at position 22; C-terminal primary amide, Synthetic acylated peptide, trifluoroacetate salt) [Example 8]	0.99
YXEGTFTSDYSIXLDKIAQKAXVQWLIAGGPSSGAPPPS (Aib at positions 2 and 13; K at position 20 conjugated at the epsilon-amino group with ([2-(2-Amino-ethoxy)-ethoxy]-acetyl)2-(γGlu)2-CO-(CH2)18-CO2H; 1-Nal at position 22; C-terminal primary amide, Synthetic acylated peptide, trifluoroacetate salt) [Example 2]	1.19

// below: Molar ratio of hGLP-1R/hGIP-R requested for another binder
# input Provide measured Molar ratio of hGLP-1R/hGIP-R value, entry: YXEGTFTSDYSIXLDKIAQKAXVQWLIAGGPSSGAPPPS (Aib at positions 2 and 13; K at position 20 conjugated at the epsilon-amino group with ([2-(2-Amino-ethoxy)-ethoxy]-acetyl)2-(γGlu)1-CO-(CH2)16-CO2H; 1-Nal at position 22; C-terminal primary amide, Synthetic acylated peptide, trifluoroacetate salt) [Example 6]
# output 1.83
